- Test system: KRAS-mutant PDC multicell tumor spheroid viability
- protocol-details: Anticancer human tumor 521955-158-R2-J5-PDC patient-derived pancreatic carcinoma cell line growth inhibition [KRAS2]
- condition-parameters: second compound 0.316 µM; first compound 3.16 µM; active compounds read low
viability, T/C for assorted compounds
Express your answer in %, writing the number without its unit.

Here is how some compounds turned out for viability, T/C.
# compound, viability, T/C, %
records = [
    ("CC1COCCN1c1cc(-c2ccnn2C)c2ccnc(-c3ccn[nH]3)c2n1 (stereo unspecified) + CC1OCC2(CCN(c3cnc(Sc4ccnc(N)c4Cl)c(N)n3)CC2)C1N", 17.1),
    ("COc1cc2nccc(Oc3ccc(NC(=O)C4(C(=O)Nc5ccc(F)cc5)CC4)cc3)c2cc1OC + CC1OCC2(CCN(c3cnc(Sc4ccnc(N)c4Cl)c(N)n3)CC2)C1N", 60.3),
    ("CCNC(=O)CC1N=C(c2ccc(Cl)cc2)c2cc(OC)ccc2-n2c(C)nnc21 (stereo unspecified) + C=CC(=O)N1CCN(c2nc(=O)n(-c3c(C)ccnc3C(C)C)c3nc(-c4c(O)cccc4F)c(F)cc23)C(C)C1", 43.7),
    ("CC1COCCN1c1cc(-c2ccnn2C)c2ccnc(-c3ccn[nH]3)c2n1 (stereo unspecified) + C=CC(=O)N1CCN(c2nc(OCC3CCCN3C)nc3c2CCN(c2cccc4cccc(C)c24)C3)CC1CC#N", 27.3),
    ("COc1cc2nccc(Oc3ccc(NC(=O)C4(C(=O)Nc5ccc(F)cc5)CC4)cc3)c2cc1OC + C=CC(=O)N1CCN(c2nc(OCC3CCCN3C)nc3c2CCN(c2cccc4cccc(C)c24)C3)CC1CC#N", 82.7),
    ("COC(=O)c1ccc2c(C(=Nc3ccc(N(C)C(=O)CN4CCN(C)CC4)cc3)c3ccccc3)c(O)[nH]c2c1 + COc1cc2nc(C)nc(NC(C)c3cc(N)cc(C(F)(F)F)c3)c2cc1OC1CCOC1", 42.1),
    ("CCNC(=O)CC1N=C(c2ccc(Cl)cc2)c2cc(OC)ccc2-n2c(C)nnc21 (stereo unspecified) + CNCc1ccccc1-c1csc(C(C)Nc2nc(C)nc3cc(OC)c(OC)cc23)c1", 28.6),
    ("O=C(c1cc(Cc2n[nH]c(=O)c3ccccc23)ccc1F)N1CCN(C(=O)C2CC2)CC1 + CNCc1ccccc1-c1csc(C(C)Nc2nc(C)nc3cc(OC)c(OC)cc23)c1", 72.1),
]

Any idea what its viability, T/C is? The compound is COc1cc2nccc(Oc3ccc(NC(=O)C4(C(=O)Nc5ccc(F)cc5)CC4)cc3)c2cc1OC + CNCc1ccccc1-c1csc(C(C)Nc2nc(C)nc3cc(OC)c(OC)cc23)c1 75.7

Try this compound next: CC(=O)OC12COC1CC(O)C1(C)C(=O)C(O)C3=C(C)C(OC(=O)C(O)C(NC(=O)OC(C)(C)C)c4ccccc4)CC(O)(C(OC(=O)c4ccccc4)C21)C3(C)C (stereo unspecified) + C=CC(=O)N1CCN(c2nc(OCC3CCCN3C)nc3c2CCN(c2cccc4cccc(C)c24)C3)CC1CC#N 19.8

Try this compound next: COc1cc(Nc2ncc3c(n2)-c2ccc(Cl)cc2C(c2c(F)cccc2OC)=NC3)ccc1C(=O)O + C=CC(=O)N1CCN(c2nc(=O)n(-c3c(C)ccnc3C(C)C)c3nc(-c4c(O)cccc4F)c(F)cc23)C(C)C1 44.3

###

- System: KRAS-mutant PDC multicell tumor spheroid viability
- protocol-details: Anticancer human tumor 521955-158-R2-J5-PDC cell line growth inhibition [KRAS2];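 note: viability read after seven days of drug exposure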
- condition-parameters: second compound 3.16 µM; first compound 0.00316 µM; active compounds read low
measured-metric: viability, T/C (%)
Express your answer in %, writing the number without its unit.

# compound, viability, T/C (%)
data = [
    ("CC(C)n1nc(-c2ccc3oc(N)nc3c2)c2c(N)ncnc21 + C=CC(=O)N1CCN(c2nc(OCC3CCCN3C)nc3c2CCN(c2cccc4cccc(C)c24)C3)CC1CC#N", 25.6),
    ("Cn1ncnc1[C@H]1c2n[nH]c(=O)c3cc(F)cc(c23)N[C@@H]1c1ccc(F)cc1 + CNCc1ccccc1-c1csc(C(C)Nc2nc(C)nc3cc(OC)c(OC)cc23)c1", 2.97),
    ("CC(C)n1nc(-c2ccc3oc(N)nc3c2)c2c(N)ncnc21 + C=CC(=O)N1CCN(c2nc(=O)n(-c3c(C)ccnc3C(C)C)c3nc(-c4c(O)cccc4F)c(F)cc23)C(C)C1", 51.9),
    ("CCN1CCN(Cc2ccc(Nc3ncc(F)c(-c4cc(F)c5nc(C)n(C(C)C)c5c4)n3)nc2)CC1 + C=CC(=O)N1CCN(c2nc(=O)n(-c3c(C)ccnc3C(C)C)c3nc(-c4c(O)cccc4F)c(F)cc23)C(C)C1", 89.2),
]

Then there is this compound:
Any idea what its viability, T/C is? The compound is CN(C)C/C=C/C(=O)Nc1cc2c(Nc3ccc(F)c(Cl)c3)ncnc2cc1O[C@H]1CCOC1 + COc1cc2nc(C)nc(NC(C)c3cc(N)cc(C(F)(F)F)c3)c2cc1OC1CCOC1 88.5

###

viability, T/C for assorted molecules
- Tested on: KRAS-mutant PDC multicell tumor spheroid viability
- protocol-details: Anticancer human tumor 521955-158-R2-J5-PDC cell line growth inhibition [KRAS2];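 note: viability read after seven days of drug exposure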
- condition-parameters: second compound 0.1 µM; first compound 3.16 µM; active compounds read low
Express your answer in %, writing the number without its unit.

Here is how some molecules turned out for viability, T/C.
# molecule, assay-target, viability, T/C [%]
records = [
    ("CC1COCCN1c1cc(-c2ccnn2C)c2ccnc(-c3ccn[nH]3)c2n1 (stereo not given) + CNCc1ccccc1-c1csc(C(C)Nc2nc(C)nc3cc(OC)c(OC)cc23)c1", "KRAS-mutant PDC multicell tumor spheroid viability", 29.5),
    ("CC(=O)OC12COC1CC(O)C1(C)C(=O)C(O)C3=C(C)C(OC(=O)C(O)C(NC(=O)OC(C)(C)C)c4ccccc4)CC(O)(C(OC(=O)c4ccccc4)C21)C3(C)C (stereo not given) + COc1cc2nc(C)nc(NC(C)c3cc(N)cc(C(F)(F)F)c3)c2cc1OC1CCOC1", "KRAS-mutant PDC multicell tumor spheroid viability", 19),
    ("Cn1nccc1Nc1nccc(-c2cc3c(s2)C(C)(C)N(CCN2CCOCC2)C3=O)n1 + COc1cc2nc(C)nc(NC(C)c3cc(N)cc(C(F)(F)F)c3)c2cc1OC1CCOC1", "KRAS-mutant PDC multicell tumor spheroid viability", 24.6),
    ("CC(C)NCC(C(=O)N1CCN(c2ncnc3c2C(C)CC3O)CC1)c1ccc(Cl)cc1 (stereo not given) + C=CC(=O)N1CCN(c2nc(OCC3CCCN3C)nc3c2CCN(c2cccc4cccc(C)c24)C3)CC1CC#N", "KRAS-mutant PDC multicell tumor spheroid viability", 79.6),
]

Then there is this molecule:
Find the measured viability, T/C: item O=C(c1cc(Cc2n[nH]c(=O)c3ccccc23)ccc1F)N1CCN(C(=O)C2CC2)CC1 + CC1OCC2(CCN(c3cnc(Sc4ccnc(N)c4Cl)c(N)n3)CC2)C1N , target or system KRAS-mutant PDC multicell tumor spheroid viability. 53.3

###

viability, T/C for assorted compounds
- Test system: KRAS-mutant PDC multicell tumor spheroid viability
- protocol-details: Anticancer human tumor 521955-158-R2-J5-PDC cell line growth inhibition [KRAS2];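 note: viability read after seven days of drug exposure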
- condition-parameters: second compound 3.16 µM; first compound 1 µM; active compounds read low

Find the measured viability, T/C: item Cn1nccc1Nc1nccc(-c2cc3c(s2)C(C)(C)N(CCN2CCOCC2)C3=O)n1 + CC1OCC2(CCN(c3cnc(Sc4ccnc(N)c4Cl)c(N)n3)CC2)C1N , target or system KRAS-mutant PDC multicell tumor spheroid viability. 40.4%

Try this compound next: CCN1CCN(Cc2ccc(Nc3ncc(F)c(-c4cc(F)c5nc(C)n(C(C)C)c5c4)n3)nc2)CC1 + CC1OCC2(CCN(c3cnc(Sc4ccnc(N)c4Cl)c(N)n3)CC2)C1N 60.1%

Try this compound next: CCNC(=O)CC1N=C(c2ccc(Cl)cc2)c2cc(OC)ccc2-n2c(C)nnc21 (stereo not drawn) + COc1cc2nc(C)nc(NC(C)c3cc(N)cc(C(F)(F)F)c3)c2cc1OC1CCOC1 39.6%

Try this compound next: CC1COCCN1c1cc(-c2ccnn2C)c2ccnc(-c3ccn[nH]3)c2n1 (stereo not drawn) + C=CC(=O)N1CCN(c2nc(=O)n(-c3c(C)ccnc3C(C)C)c3nc(-c4c(O)cccc4F)c(F)cc23)C(C)C1 22.6%

Try this compound next: O=C(c1cc(Cc2n[nH]c(=O)c3ccccc23)ccc1F)N1CCN(C(=O)C2CC2)CC1 + C=CC(=O)N1CCN(c2nc(OCC3CCCN3C)nc3c2CCN(c2cccc4cccc(C)c24)C3)CC1CC#N 1.67%

Try this compound next: CC1COCCN1c1cc(-c2ccnn2C)c2ccnc(-c3ccn[nH]3)c2n1 (stereo not drawn) + CC1OCC2(CCN(c3cnc(Sc4ccnc(N)c4Cl)c(N)n3)CC2)C1N 10.5%

Try this compound next: CC1(C)CCC(CN2CCN(c3ccc(C(=O)NS(=O)(=O)c4ccc(NCC5CCOCC5)c([N+](=O)[O-])c4)c(Oc4cnc5[nH]ccc5c4)c3)CC2)=C(c2ccc(Cl)cc2)C1 + C=CC(=O)N1CCN(c2nc(OCC3CCCN3C)nc3c2CCN(c2cccc4cccc(C)c24)C3)CC1CC#N 1.39%

Try this compound next: CC(C)NCC(C(=O)N1CCN(c2ncnc3c2C(C)CC3O)CC1)c1ccc(Cl)cc1 (stereo not drawn) + CNCc1ccccc1-c1csc(C(C)Nc2nc(C)nc3cc(OC)c(OC)cc23)c1 0.59%

Try this compound next: CCN1CCN(Cc2ccc(Nc3ncc(F)c(-c4cc(F)c5nc(C)n(C(C)C)c5c4)n3)nc2)CC1 + COc1cc2nc(C)nc(NC(C)c3cc(N)cc(C(F)(F)F)c3)c2cc1OC1CCOC1 73%

Try this compound next: CCNC(=O)CC1N=C(c2ccc(Cl)cc2)c2cc(OC)ccc2-n2c(C)nnc21 (stereo not drawn) + CC1OCC2(CCN(c3cnc(Sc4ccnc(N)c4Cl)c(N)n3)CC2)C1N 23.5%

Try this compound next: Cn1nccc1Nc1nccc(-c2cc3c(s2)C(C)(C)N(CCN2CCOCC2)C3=O)n1 + CNCc1ccccc1-c1csc(C(C)Nc2nc(C)nc3cc(OC)c(OC)cc23)c1 0.51%

Try this compound next: COc1cc2nccc(Oc3ccc(NC(=O)C4(C(=O)Nc5ccc(F)cc5)CC4)cc3)c2cc1OC + CC1OCC2(CCN(c3cnc(Sc4ccnc(N)c4Cl)c(N)n3)CC2)C1N 52.5%

Try this compound next: CC1(C)CCC(CN2CCN(c3ccc(C(=O)NS(=O)(=O)c4ccc(NCC5CCOCC5)c([N+](=O)[O-])c4)c(Oc4cnc5[nH]ccc5c4)c3)CC2)=C(c2ccc(Cl)cc2)C1 + CC1OCC2(CCN(c3cnc(Sc4ccnc(N)c4Cl)c(N)n3)CC2)C1N 41.4%

Origin of the recorded values: PubChem BioAssay AID1963871
